Origin of the recorded values: patent US20230140290A1

- Test system: wild-type HAdV5
- assay explanation: Nuclear-associated HAdV genomes (real-time PCR)
- Assay type: cell-based, HAdV-5
- assay conditions: FIG. 5A; 45 min post-infection; 10-fold plaque IC50
- Method: Nuclear-Associated HAdV Genomes. The nuclear delivery of HAdV genomes was assessed by real-time PCR following nuclear isolation from infected cells. […] Forty-five minutes after infection, A549 cells were trypsinized and collected and then washed twice with PBS. […] Nuclear-Associated HAdV Genomes. The nuclear delivery of HAdV genomes was assessed by real-time PCR following nuclear isolation from infected cells. […]
assay endpoint: amount of nuclear-associated HAdV genomes versus DMSO

> print(dat)
                                   compound                  result
1  O=C(Nc1ccc(NCc2ccc(O)cc2)cc1Cl)c1cc(Cl)ccc1O [Compound 101]  significant reductions
2  CC(C)(C)OC(=O)N1CCC(CNc2ccc(NC(=O)c3cc(Cl)ccc3O)c(Cl)c2)CC1 [Compound 126]     partially inhibited
3  O=C(Nc1ccc(NCc2ccc(O)nc2)cc1Cl)c1cc(Cl)ccc1O [Compound 112]  significant reductions
4  CC1(Nc2ccc(NC(=O)c3cc(Cl)ccc3O)c(Cl)c2)CCCC1 [Compound 87]     partially inhibited
